Measured pKa, listed per entry for reference.
- protocol: physchem
Respond using a number only.

>  <query_smiles>
N[C@@H](CO)Cn1nnc(-c2ccc(Oc3ncc(Cl)cc3F)cc2)n1

>  <pKa>
7.1

$$$$

// next item, pKa requested
## Input What does the record list as pKa for N[C@H](CO)Cn1nnc(-c2ccc(Oc3ncc(Cl)cc3F)cc2)n1 ?
## Output 7.1

###

- protocol: in vivo
- details: Sprague-Dawley, rat, iv, 1 mg/kg
property: Cmax (nM)
Express it in nM; write the number only.

>  <query_smiles>
N[C@@H](CO)Cn1nnc(-c2ccc(Oc3ncc(Cl)cc3F)cc2)n1

>  <unit_info>
nM

>  <Cmax>
42

$$$$
>  <query_smiles>
N[C@H](CO)Cn1ccc(-c2ccc(Oc3ncc(-c4cc[nH]n4)cc3F)cc2)n1

>  <unit_info>
nM

>  <Cmax>
298

$$$$

## Input Value lookup for Cmax; key = N[C@H](CO)Cn1nnc(-c2ccc(Oc3ncc(Cl)cc3F)cc2)n1
## Output 1300

## Input I'd like to know its Cmax. The compound in question is N[C@H](CO)Cc1nc(-c2ccc(Oc3ccc(-c4cc[nH]n4)cn3)cc2)no1
## Output 403
